Experiment: Selectivity index, ratio of IC50 for rat L6 cells to IC50 for chloroquine-sensitive Plasmodium falciparum NF54 erythrocytic stages
Format: toxicity
Settings: read-out: Ratio IC50

{"columns": ["smiles.string", "selectivity ratio"],
 "data": [
  ["O=C(CN1CCCC1)Nc1cc(-c2ccc(CN3CCOCC3)cc2)nc2ccc(F)cc12", 54.6],
  ["O=C(CCN1CCCC1)Nc1cc(-c2ccc(CN3CCOCC3)cc2)nc2ccc(F)cc12", 30800],
  ["O=C(NCc1ccccc1)c1cc(-c2ccc(CN3CCOCC3)cc2)nc2ccc(F)cc12", 17.2],
  ["CC(C)(C)OC(=O)N1CCN(CCC(=O)Nc2cc(-c3ccc(CN4CCOCC4)cc3)nc3ccc(F)cc23)CC1", 216],
  ["O=C(NC1CCNCC1)c1cc(-c2ccc(CN3CCOCC3)cc2)nc2ccc(F)cc12", 69.9],
  ["O=C(c1cc(-c2ccc(CN3CCOCC3)cc2)nc2ccc(F)cc12)N1CCC(O)CC1", 1.57],
  ["CC(C)(C)OC(=O)N1CCN(CCNCc2cc(-c3ccc(CN4CCOCC4)cc3)nc3ccc(F)cc23)CC1", 1100],
  ["Nc1cc(-c2ccc(CN3CCOCC3)cc2)nc2ccc(F)cc12", 93.3]
]}
